test system: kochia (Bassia scoparia); assay: Test A preemergence, kochia; type: in vivo; conditions: Preemergence, 31 g ai/ha; visual injury, 0 to 100 scale (0 no effect, 100 complete control), approx. 10 days
ATTRIBUTE MEASURED: Plant response rating, Kochia
Please state the value as a number alone, without comment.

Examples from the recorded data:
COC1CCCN(C(=O)c2cc(NS(=O)(=O)C(F)(F)F)c(C)c(F)c2C)C1 (stereo not shown) [Compound 98]
40
Cc1cc(C)c(C2=NOC3CCCCC23)cc1NS(=O)(=O)C(F)(F)F (stereo not shown) [Compound 131]
30
Cc1cc(C)c(N2CC3(CCOCC3)OC2=O)cc1NS(=O)(=O)C(F)(F)F [Compound 156]
30

Now take the following molecule into account.
**Query** Find the measured Plant response rating, Kochia of Cc1cc(C)c(N(S(=O)(=O)C(F)(F)F)S(=O)(=O)C(F)(F)F)cc1C(=O)N1CCC(C#N)CC1 [Compound 161] with kochia (Bassia scoparia) as test system.
**Result** 30

---

Measured Foxtail, Giant plant response rating accompanies every entry in the list below.
tested on: Foxtail, Giant (giant foxtail, Setaria faberi); experiment: Test A preemergence, Foxtail, Giant; type: in vivo; settings: Preemergence, 125 g ai/ha; visual injury on 0 to 100 scale (0 no effect, 100 complete control), approximately 10 days
Please state the value as a number alone, without comment.

Examples from the recorded data:
Cc1cc(C(F)(F)F)c(NS(=O)(=O)C(F)(F)F)cc1C(=O)N(C)C
30
CCn1nc(Cl)cc(-c2cc(N(S(C)(=O)=O)S(=O)(=O)C(F)(F)F)c(C)cc2C)c1=O
100
Cc1cc(C)c(N(S(=O)(=O)C(F)(F)F)S(=O)(=O)C(F)(F)F)cc1-c1cc(Cl)nn(C)c1=O
100

**Query** Fill in Foxtail, Giant plant response rating for record `Cc1cc(C)c(C2=NOC3(CCSCC3)C2)cc1NS(=O)(=O)C(F)(F)F`
**Result** 100

**Query** Fill in Foxtail, Giant plant response rating for record Cc1cc(C)c(C2=NOC3CCCCC23)cc1NS(=O)(=O)C(F)(F)F (stereo not drawn) [Compound 131]
**Result** 100

**Query** Fill in Foxtail, Giant plant response rating for record CCC(C)C(=O)OCN(c1cc(C2=NOC3(CCCC3)C2)c(C)cc1C)S(=O)(=O)C(F)(F)F (stereo not drawn)
**Result** 100

---

test system: Pigweed, Palmer (palmer amaranth, palmer pigweed, Amaranthus palmeri); experiment: Test A1 preemergence, Pigweed, Palmer; assay type: in vivo; conditions: 125 g ai/ha, 0 to 100 scale, 0 no effect, 100 complete control
Measured Plant response rating, Pigweed, Palmer accompanies every entry in the list below.
Please state the value as a number alone, without comment.

Examples from the recorded data:
Cc1c(C(=O)N2CCC(C)CC2)cc(N(COC(=O)C(C)(C)C)S(=O)(=O)C(F)(F)F)c(C)c1C
50
CCC1CC(c2cc(N(COC(=O)C(C)(C)C)S(=O)(=O)C(F)(F)F)c(C)cc2C)=NO1 (stereo not drawn)
40
Cc1cc(C)c(N(COC(=O)C(C)(C)C)S(=O)(=O)C(F)(F)F)cc1C1=NOC2(C)CCCC12 (stereo not drawn)
20
Cc1cc(Cl)c(NS(=O)(=O)C(F)(F)F)cc1N1CCC2(CCCCC2)C1=O
60
Cc1c(NS(=O)(=O)C(F)(F)F)cc(C2=NOC3(CCCC3)C2)c(C)c1C
40
Cc1cc(C)c(C2=NOC3OCCCC23)cc1NS(=O)(=O)C(F)(F)F (stereo not drawn)
90
CCOC(=O)N(c1cc(C(=O)N2C[C@@H](C)O[C@@H](C)C2)c(C)c(C)c1C)S(=O)(=O)C(F)(F)F
90
Cc1cc(C)c(N(COC(=O)C(C)(C)C)S(=O)(=O)C(F)(F)F)cc1C(=O)N1CCOCC1
80
CCOC(=O)N(c1cc(C(=O)N2CCOCC2)c(C)cc1C)S(=O)(=O)C(F)(F)F
100
Cc1c(C2=NO[C@@H]3CCC[C@H]23)cc(N(COC(=O)C(C)(C)C)S(=O)(=O)C(F)(F)F)c(C)c1C
100

**Query** Fill in Plant response rating, Pigweed, Palmer for record Cc1c(NS(=O)(=O)C(F)(F)F)cc(C(=O)N2CC(C)OC(C)C2)c(C)c1C (stereo not drawn)
**Result** 100

**Query** Fill in Plant response rating, Pigweed, Palmer for record Cc1cc(C2CC2)c(C2=NOC3CCCC23)cc1N(COC(=O)C(C)(C)C)S(=O)(=O)C(F)(F)F (stereo not drawn)
**Result** 70

# credit: patent US20230278972A1
